Cited source: PubChem BioAssay AID1963866

- Test system: PDC KRAS tumor spheroids with HUVEC/MSC, viability;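 note: spheroids exposed to compounds for seven days before readout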
- METHOD: Anticancer human tumor 349418-098-R-PDC patient-derived lung adenocarcinoma cell line growth inhibition [KRAS2]
- RECORDED_CONDITIONS: second compound 1 µM; first compound 0.001 µM; active compounds read low
- Description: Multicellular complex tumor spheroid response to RAS pathway inhibitors in combination with a targeted agents in patient-derived cell lines with oncogenic KRAS variants from multiple cancer types A high-throughput screen of multi-cell type tumor spheroids was designed to identify active combinations of targeted small molecules and KRAS pathway inhibitors. […] Compounds. […] If the clinical Cmax for an agent had not been determined, the highest concentration tested was 10 microM. […]
viability, T/C under 60% gets Criterion met, anything at or over 60% gets Criterion not met.

Please review the following examples before continuing.
MOLECULE	CATEGORY_LABEL
CC(C)n1nc(-c2ccc3oc(N)nc3c2)c2c(N)ncnc21 + CNCc1ccccc1-c1csc(C(C)Nc2nc(C)nc3cc(OC)c(OC)cc23)c1	Criterion met
CC(=O)Nc1cccc(-n2c(=O)n(C3CC3)c(=O)c3c(Nc4ccc(I)cc4F)n(C)c(=O)c(C)c32)c1 + C=CC(=O)N1CCN(c2nc(=O)n(-c3c(C)ccnc3C(C)C)c3nc(-c4c(O)cccc4F)c(F)cc23)C(C)C1	Criterion met
CC(C)n1nc(-c2ccc3oc(N)nc3c2)c2c(N)ncnc21 + CC1OCC2(CCN(c3cnc(Sc4ccnc(N)c4Cl)c(N)n3)CC2)C1N	Criterion met

In plain terms, does Cn1ncnc1[C@H]1c2n[nH]c(=O)c3cc(F)cc(c23)N[C@@H]1c1ccc(F)cc1 + COc1cc2nc(C)nc(NC(C)c3cc(N)cc(C(F)(F)F)c3)c2cc1OC1CCOC1 come in under 60% for viability, T/C?
Criterion not met

Would you kindly verify if viability, T/C of Cn1ncnc1[C@H]1c2n[nH]c(=O)c3cc(F)cc(c23)N[C@@H]1c1ccc(F)cc1 + C=CC(=O)N1CCN(c2nc(=O)n(-c3c(C)ccnc3C(C)C)c3nc(-c4c(O)cccc4F)c(F)cc23)C(C)C1 is strictly less than 60%?
Criterion not met

I wonder whether CN(C)C/C=C/C(=O)Nc1cc2c(Nc3ccc(F)c(Cl)c3)ncnc2cc1O[C@H]1CCOC1 + COc1cc2nc(C)nc(NC(C)c3cc(N)cc(C(F)(F)F)c3)c2cc1OC1CCOC1 has viability, T/C below 60%. Can you tell?
Criterion not met

Record Cn1ncnc1[C@H]1c2n[nH]c(=O)c3cc(F)cc(c23)N[C@@H]1c1ccc(F)cc1 + CC1OCC2(CCN(c3cnc(Sc4ccnc(N)c4Cl)c(N)n3)CC2)C1N : is its viability, T/C strictly below 60%?
Criterion not met
